The measured values listed here are drawn from the supplement of paper PMC5998384.

This section presents sequences with their documented thermal stability score values.
# Test system: HeLa Kyoto;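 further: synchronized HeLa Kyoto cells, proteins quantified by TMT10plex mass spectrometry, three biological replicates, mitosis taken 0.5 h after nocodazole release, G1/S directly after double thymidine block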
# test-name: thermal stability score vs G1/S (z-score of summed log2 fold changes over temperatures); higher = more thermally stable than in G1/S
# cond: cell cycle stage: mitosis
Number, no unit, nothing else.

MPNWGGGKKCGVCQKTVYFAEEVQCEGNSFHKSCFLCMVCKKNLDSTTVAVHGEEIYCKSCYGKKYGPKGYGYGQGAGTLSTDKGESLGIKHEEAPGHRPTTNPNASKFAQKIGGSERCPRCSQAVYAAEKVIGAGKSWHKACFRCAKCGKGLESTTLADKDGEIYCKGCYAKNFGPKGFGFGQGAGALVHSE [CSRP1] | -2.91

Entry METLYRVPFLVLECPNLKLKKPPWLHMPSAMTVYALVVVSYFLITGGIIYDVIVEPPSVGSMTDEHGHQRPVAFLAYRVNGQYIMEGLASSFLFTMGGLGFIILDRSNAPNIPKLNRFLLLFIGFVCVLLSFFMARVFMRMKLPGYLMG [OSTC] : reported thermal stability score = ?
0.407

Okay, and MAAVAALQLGLRAAGLGRAPASAAWRSVLRVSPRPGVAWRPSRCGSSAAEASATKAEDDSFLQWVLLLIPVTAFGLGTWQVQRRKWKLNLIAELESRVLAEPVPLPADPMELKNLEYRPVKVRGCFDHSKELYMMPRTMVDPVREAREGGLISSSTQSGAYVVTPFHCTDLGVTILVNRGFVPRKKVNPETRQKGQIEGEVDLIGMVRLTETRQPFVPENNPERNHWHYRDLEAMARITGAEPIFIDANFQSTVPGGPIGGQTRVTLRNEHLQYIVTWYGLSAATSYLWFKKFLRGTPGV [SURF1] ?
-0.542

Okay, and MAVADLALIPDVDIDSDGVFKYVLIRVHSAPRSGAPAAESKEIVRGYKWAEYHADIYDKVSGDMQKQGCDCECLGGGRISHQSQDKKIHVYGYSMAYGPAQHAISTEKIKAKYPDYEVTWANDGY [PHPT1] ?
-1.99
